tgt: Programmed cell death protein 1/Programmed cell death 1 ligand 1 (Homo sapiens, UniProt Q15116+Q9NZQ7)
Sequence (Q15116 whole entry): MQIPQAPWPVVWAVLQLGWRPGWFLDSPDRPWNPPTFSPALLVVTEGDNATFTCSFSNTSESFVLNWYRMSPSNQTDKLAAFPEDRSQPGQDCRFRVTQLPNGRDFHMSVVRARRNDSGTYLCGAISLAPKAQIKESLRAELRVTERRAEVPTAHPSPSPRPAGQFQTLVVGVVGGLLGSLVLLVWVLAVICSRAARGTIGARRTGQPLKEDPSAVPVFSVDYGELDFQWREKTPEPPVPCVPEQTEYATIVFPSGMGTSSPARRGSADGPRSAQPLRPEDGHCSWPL
Sequence (Q9NZQ7 whole entry): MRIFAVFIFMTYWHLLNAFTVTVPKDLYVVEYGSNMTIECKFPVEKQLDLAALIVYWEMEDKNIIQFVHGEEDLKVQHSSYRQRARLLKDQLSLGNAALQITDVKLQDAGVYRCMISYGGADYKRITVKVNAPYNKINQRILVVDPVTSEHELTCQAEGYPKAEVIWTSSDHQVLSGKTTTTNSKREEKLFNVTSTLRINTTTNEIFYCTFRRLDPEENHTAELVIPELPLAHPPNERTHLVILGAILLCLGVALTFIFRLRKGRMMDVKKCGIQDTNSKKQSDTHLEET
protocol: Inhibition of human PD1/PDL1 protein-protein interaction after 15 mins by HTRF assay
pIC50: −log10 of the molar value.
Label true (1) when pIC50 is at or above 6; anything below gets false (0).

compound=COC(=O)[C@@H]1CCCCN1Cc1cc(C(=O)Nc2cccc(-c3ccccc3)c2C)c2nncn2c1 class_name="false (0)"
compound=CC(=O)NCCNCc1cc(C(=O)Nc2cccc(-c3ccccc3)c2C)c2nccn2c1 class_name="false (0)"
compound=N#Cc1c(NC(=O)c2cc(CNCCO)cn3cnnc23)cccc1-c1ccc2c(c1)OCCO2 class_name="true (1)"

Ask: Is pIC50 for "Cc1c(NC(=O)c2cc(CN3CCN(C)CC3)cn3c(C)nnc23)cccc1-c1ccccc1" at or above 6?
Result: false (0)

Ask: Is pIC50 for CN(Cc1cc(C(=O)Nc2cccc(-c3ccc4c(c3)OCCO4)c2C#N)c2nncn2c1)CC(O)CO (stereo not given) at or above 6?
Result: true (1)

---

tgt: Programmed cell death protein 1/Programmed cell death 1 ligand 1 (Homo sapiens, UniProt Q15116+Q9NZQ7)
protocol: Inhibition of human PD1/PDL1 protein-protein interaction after 15 mins by HTRF assay
compounds and their reported IC50
Please give a number only; it is taken to be in µM.

Answered examples (2):
compound=CC(=O)NCCNCc1cc(C(=O)Nc2cccc(-c3ccc4c(c3)OCCO4)c2C)c2nncn2c1 experimental_value=0.566
compound=Cc1c(NC(=O)c2cc(CN3CCN(C)CC3)cn3cnnc23)cccc1-c1ccccc1 experimental_value=1.35

Ask: Name the recorded IC50 of the item Cc1c(NC(=O)c2cc(CN(C)CC(O)CO)cn3cnnc23)cccc1-c1ccccc1 (stereo not given) in your answer.
Result: 0.375

Ask: Name the recorded IC50 of the item "Cc1c(NC(=O)c2cc(CNCCS(N)(=O)=O)cn3cnnc23)cccc1-c1ccccc1" in your answer.
Result: 0.834

Ask: Name the recorded IC50 of the item "Cc1c(NC(=O)c2cc(CN[C@H](CO)C(=O)O)cn3cnnc23)cccc1-c1ccccc1" in your answer.
Result: 5.57

Ask: Name the recorded IC50 of the item "Cc1c(NC(=O)c2cc(CN(C)CCO)cn3cnnc23)cccc1-c1ccccc1" in your answer.
Result: 0.755

Ask: Name the recorded IC50 of the item "Cc1c(NC(=O)c2cc(CNCCS(N)(=O)=O)cn3cnnc23)cccc1-c1ccc2c(c1)OCCO2" in your answer.
Result: 3.69

Ask: Name the recorded IC50 of the item "Cc1c(NC(=O)c2cc(CN3CCCC[C@H]3C(=O)O)cn3cnnc23)cccc1-c1ccccc1" in your answer.
Result: 5.13

Ask: Name the recorded IC50 of the item "CC(=O)NCCNCc1cc(C(=O)Nc2cccc(-c3ccc4c(c3)OCCO4)c2C#N)c2nncn2c1" in your answer.
Result: 0.367

Ask: Name the recorded IC50 of the item Cc1c(NC(=O)c2cc(CN(C)CC(O)CO)cn3cnnc23)cccc1-c1ccc2c(c1)OCCO2 (stereo not given) in your answer.
Result: 0.474

---

tgt: Programmed cell death protein 1/Programmed cell death 1 ligand 1 (Homo sapiens, UniProt Q15116+Q9NZQ7)
protocol: Inhibition of human PD1/PDL1 protein-protein interaction after 15 mins by HTRF assay
Could you mark each record Satisfied if its IC50 falls strictly under 1000 nM, and Not satisfied if it equals or exceeds it?

smiles_text=COC(=O)CNCc1cc(C(=O)Nc2cccc(-c3ccccc3)c2C)c2nncn2c1 class_name="Not satisfied"
smiles_text=COC(=O)[C@@H](CO)NCc1cc(C(=O)Nc2cccc(-c3ccccc3)c2C)c2nncn2c1 class_name="Not satisfied"
smiles_text=Cc1c(NC(=O)c2cc(CNCCO)cn3cnnc23)cccc1-c1ccccc1 class_name=Satisfied
smiles_text=Cc1c(NC(=O)c2cc(CNCC(N)=O)cn3cnnc23)cccc1-c1ccccc1 class_name="Not satisfied"
smiles_text=CC(=O)NCCNCc1ccc(C(=O)Nc2cccc(-c3ccccc3)c2C)c2nncn12 class_name="Not satisfied"

Ask: Confirm or reject: IC50 of "Cc1c(NC(=O)c2cc(CNCCO)cn3ccnc23)cccc1-c1ccccc1" lies strictly below 1000 nM
Result: Not satisfied

Ask: Confirm or reject: IC50 of "Cc1c(NC(=O)c2cc(CN(C)CCO)cn3ccnc23)cccc1-c1ccccc1" lies strictly below 1000 nM
Result: Not satisfied

Ask: Confirm or reject: IC50 of "CC(=O)NCCNCc1cc(C(=O)Nc2cccc(-c3ccccc3)c2C)c2nncn2c1" lies strictly below 1000 nM
Result: Not satisfied
